// provenance: the supplement of paper PMC12494721

Tested on: Escherichia coli IAI1
Assay: fold change of Putrescine concentration vs plate DMSO controls (fold change (ratio)); higher = more amine produced, active = hit call of the paper (significant change in both replicates, either direction)
Details: incubation time: 27 h, anaerobic, 37 °C
Counter-ions that a name gives are not always drawn.
Listing of recorded fold change of Putrescine concentration by entry.
A bare number is all that is needed in reply.

Worked examples follow.
CC1(C)S[C@@H]2[C@H](NC(=O)[C@H](N)c3ccccc3)C(=O)N2[C@H]1C(=O)O [Ampicillin sodium salt] (20 µM)
0.981
CCNC(=O)CCC/C=C\C[C@@H]1[C@@H](/C=C/[C@@H](O)CCc2ccccc2)[C@H](O)C[C@@H]1O [Bimatoprost] (20 µM)
1.02
CNC(=C[N+](=O)[O-])NCCSCc1csc(CN(C)C)n1 [Nizatidine] (20 µM)
0.988

QUERY: Which fold change of Putrescine concentration value belongs to CCOC(=O)[C@H](CCc1ccccc1)N[C@H]1CS[C@H](c2cccs2)CN(CC(=O)O)C1=O [Temocapril hydrochloride] (20 µM) ?
RESULT: 0.997

* * *

Test system: Ruminococcus gnavus DSM 108212
Assay: growth (OD595) fold change vs plate DMSO controls (fold change (ratio)); higher = more growth
Settings: incubation time: 27 h, anaerobic, 37 °C
Where a name gives a salt, the structure may show the parent alone.
Listing of recorded growth by entry.
A bare number is all that is needed in reply.

CCN(CC)CCOC(=O)C(c1ccccc1)C1CCCCC1 (centres undefined) [Drofenine hydrochloride] (20 µM)
0.939
c1ccc2cc3c(ccc4ccccc43)cc2c1 [Benz[a]anthracene] (20 µM)
0.97
C[C@@]12CC[C@@H]3[C@@](CC[C@H]4[C@@]3(C)CCC[C@@]4(C)C(=O)O)(CC1=O)C2 [Iso-Steviol] (50 µM)
1.09

Attention now shifts to the item below.
QUERY: Which growth value belongs to CCOc1nc2cccc(C(=O)OCc3oc(=O)oc3C)c2n1Cc1ccc(-c2ccccc2-c2noc(=O)[nH]2)cc1 [Azilsartan medoxomil] (20 µM) ?
RESULT: 1.1

* * *

Test system: Ruminococcus gnavus DSM 108212
Assay: growth (OD595) fold change vs plate DMSO controls (fold change (ratio)); higher = more growth
Conditions: incubation time: 27 h, anaerobic, 37 °C
Listing of recorded growth by entry.
A bare number is all that is needed in reply.

Worked examples follow.
CC(=O)Oc1ccccc1C(=O)Nc1ncc([N+](=O)[O-])s1 [Nitazoxanide] (20 µM)
0.11
O=C(c1ccccc1)c1ccc2n1CCC2C(=O)O (stereo not drawn) [Ketorolac tromethamine] (20 µM)
0.993
Oc1c(Cl)cc(Cl)c(Cl)c1Cc1c(O)c(Cl)cc(Cl)c1Cl [Hexachlorophene] (20 µM)
0

QUERY: Identify the measured growth of Oc1c(Cl)cc(Cl)c(Cl)c1Cc1c(O)c(Cl)cc(Cl)c1Cl (20 µM) for Ruminococcus gnavus DSM 108212.
RESULT: 0

QUERY: Identify the measured growth of S=C([S-])NCCNC(=S)[S-].S=C([S-])NCCNC(=S)[S-].[Mn+2].[Zn+2] (20 µM) for Ruminococcus gnavus DSM 108212.
RESULT: 1.01

* * *

Test system: Ruminococcus gnavus DSM 108212
Assay: growth (OD595) fold change vs plate DMSO controls (fold change (ratio)); higher = more growth
Conditions: incubation time: 27 h, anaerobic, 37 °C
Counter-ions that a name gives are not always drawn.
Listing of recorded growth by entry.
A bare number is all that is needed in reply.

QUERY: Which growth value belongs to Cc1cnc(C(=O)NCCc2ccc(S(=O)(=O)NC(=O)NC3CCCCC3)cc2)cn1 [Glipizide] (20 µM) ?
RESULT: 1.08

QUERY: Which growth value belongs to C=C1/C(=C\C=C2/CCC[C@]3(C)[C@@H]([C@H](C)/C=C/[C@@H](O)C4CC4)CC[C@@H]23)C[C@@H](O)C[C@@H]1O [Calcipotriene] (20 µM) ?
RESULT: 1.3

QUERY: Which growth value belongs to CC1(C)S[C@@H]2[C@H](NC(=O)[C@H](C(=O)O)c3ccsc3)C(=O)N2[C@H]1C(=O)O [Ticarcillin sodium] (20 µM) ?
RESULT: 0

QUERY: Which growth value belongs to O=C1c2cccc3c2[C@H](CCC3)CN1[C@@H]1CN2CCC1CC2 [Palonosetron hydrochloride] (20 µM) ?
RESULT: 0.887

QUERY: Which growth value belongs to C/C(=C1\CCOC(=O)S1)N(C=O)Cc1cnc(C)nc1N [Cycotiamine] (20 µM) ?
RESULT: 1.01

QUERY: Which growth value belongs to N=C(N)Nc1ccc(C(=O)Oc2ccc3cc(C(=N)N)ccc3c2)cc1 [Nafamostat Mesylate] (20 µM) ?
RESULT: 0.967

QUERY: Which growth value belongs to C#CCN[C@@H]1CCc2ccccc21 [Rasagiline] (20 µM) ?
RESULT: 0.87

* * *

Tested on: Escherichia coli IAI1
Assay: fold change of Cadaverine concentration vs plate DMSO controls (fold change (ratio)); higher = more amine produced, active = hit call of the paper (significant change in both replicates, either direction)
Conditions: incubation time: 27 h, anaerobic, 37 °C
Counter-ions that a name gives are not always drawn.
Readout kind: fold change of Cadaverine concentration
A bare number is all that is needed in reply.

Worked examples follow.
Cc1c(O)c(=O)n(-c2ccccc2)n1C [Antipyrine, 4-hydroxy] (20 µM)
0.973
C/C(=C(\CCOC(=O)c1ccccc1)SS/C(CCOC(=O)c1ccccc1)=C(/C)N(C=O)Cc1cnc(C)nc1N)N(C=O)Cc1cnc(C)nc1N [Bisbentiamine] (20 µM)
1.03
COc1c(O[C@@H]2O[C@H](CO)[C@@H](O)[C@H](O)[C@H]2O)cc2c(c1OC)-c1ccc(SC)c(=O)cc1[C@@H](NC(C)=O)CC2 [Thiocolchicoside] (20 µM)
1
CCC(C)C(C(=O)OCC[N+](C)(CC)CC)c1ccccc1 (configuration not stated) [Valethamate bromide] (20 µM)
1.03
CC(C)(C)C(=O)OCOC(=O)[C@@H]1N2C(=O)[C@@H](/N=C/N3CCCCCC3)[C@H]2SC1(C)C [Pivmecillinam hydrochloride] (20 µM)
1.46
CC(C(=O)O)c1cccc(C(=O)c2ccccc2)c1 (configuration not stated) [Ketoprofen] (20 µM)
1.02

QUERY: Which fold change of Cadaverine concentration value belongs to CCN(CC)CCOCCOC(=O)C1(c2ccccc2)CCCC1 [Carbetapentane citrate] (20 µM) ?
RESULT: 0.988

* * *

System: Klebsiella aerogenes DSM 30053
Assay: fold change of Cadaverine concentration vs plate DMSO controls (fold change (ratio)); higher = more amine produced, active = hit call of the paper (significant change in both replicates, either direction)
Conditions: incubation time: 27 h, anaerobic, 37 °C
Readout kind: fold change of Cadaverine concentration
A bare number is all that is needed in reply.

Worked examples follow.
CC(C)COC(=O)OCN1C(=O)CN(CCN2CC(=O)N(COC(=O)OCC(C)C)C(=O)C2)CC1=O [Sobuzoxane] (20 µM)
1
CC(C)C(=O)Nc1ccc([N+](=O)[O-])c(C(F)(F)F)c1 [Flutamide] (20 µM)
0.981
O=C(c1cc(O)c(O)c(O)c1)c1ccc(O)c(O)c1O [Exifone] (20 µM)
1
COCC(=O)Nc1c(I)c(C(=O)NCC(O)CO)c(I)c(C(=O)N(C)CC(O)CO)c1I (stereo not drawn) [Iopromide] (20 µM)
1.02
Cc1cccn2c(=O)c(-c3nnn[nH]3)cnc12 [Pemirolast potassium] (20 µM)
1
NC(=O)C1CO1 (stereo not drawn) [Glycidamide] (20 µM)
1.02

QUERY: Which fold change of Cadaverine concentration value belongs to O=C(NC(Cc1cc(=O)[nH]c2ccccc12)C(=O)O)c1ccc(Cl)cc1 (stereo not drawn) [Rebamipide] (20 µM) ?
RESULT: 1

QUERY: Which fold change of Cadaverine concentration value belongs to O=C(O)C[C@H](O)C[C@H](O)/C=C/c1c(C2CC2)nc2ccccc2c1-c1ccc(F)cc1 [Pitavastatin calcium] (20 µM) ?
RESULT: 0.997

* * *

Listing of recorded fold change of 2-Phenylethylamine concentration by entry.
Tested on: Ruminococcus gnavus DSM 108212
Assay: fold change of 2-Phenylethylamine concentration vs plate DMSO controls (fold change (ratio)); higher = more amine produced, active = hit call of the paper (significant change in both replicates, either direction)
Conditions: incubation time: 27 h, anaerobic, 37 °C
A bare number is all that is needed in reply.

QUERY: Which fold change of 2-Phenylethylamine concentration value belongs to CN1CCN2c3ncccc3Cc3ccccc3C2C1 (centres undefined) [Mirtazapine] (20 µM) ?
RESULT: 1.04

QUERY: Which fold change of 2-Phenylethylamine concentration value belongs to COc1ccc(C2C(=O)c3ccccc3C2=O)cc1 [Anisindione] (20 µM) ?
RESULT: 0.951

* * *

Tested on: Ruminococcus gnavus DSM 108212
Assay: fold change of Tryptamine concentration vs plate DMSO controls (fold change (ratio)); higher = more amine produced, active = hit call of the paper (significant change in both replicates, either direction);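 for the amine columns active = adjusted P below 0.05 in both replicates with a change the same way and a mean fold change under 0.8 or over 1.25; inactive = the rest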
Conditions: incubation time: 27 h, anaerobic, 37 °C
In this exercise, the only acceptable responses are active, inactive

Study these solved cases before continuing.
CCCOc1ccccc1-c1nc2[nH]nnc2c(=O)[nH]1 [Zaprinast] (20 µM)
inactive
CCC(=O)c1c(O)cc(O)cc1O [Flopropione] (20 µM)
inactive
CC(=O)CC(c1ccccc1)c1c(O)c2ccccc2oc1=O (centres undefined) [Warfarin] (20 µM)
inactive
CC(C)OC(=O)C(C(=O)OC(C)C)=C1SC=CS1 [Malotilate] (20 µM)
inactive
C[C@]12C=CC(=O)C=C1CC[C@@H]1[C@@H]2C(=O)C[C@@]2(C)[C@H]1CC[C@]2(O)C(=O)CO [Prednisone] (20 µM)
inactive

QUERY: Can you look up the reported call for NC(=O)c1cnccn1 [Pyrazinamide] (20 µM) for me?
RESULT: inactive

QUERY: Can you look up the reported call for O=C(O)CCc1nc(-c2ccccc2)c(-c2ccccc2)o1 [Oxaprozin] (20 µM) for me?
RESULT: inactive

QUERY: Can you look up the reported call for CCC(C)(C)C(=O)O[C@H]1C[C@@H](C)C=C2C=C[C@H](C)[C@H](CC[C@@H]3C[C@@H](O)CC(=O)O3)[C@H]21 [Simvastatin] (20 µM) for me?
RESULT: inactive

QUERY: Can you look up the reported call for CC(=O)O[C@]1(C(C)=O)CC[C@H]2[C@@H]3C=C(C)C4=CC(=O)CC[C@@H]4[C@H]3CC[C@@]21C [Nomegestrol acetate] (20 µM) for me?
RESULT: inactive

QUERY: Can you look up the reported call for CC(=O)N[C@@H](CCC(N)=O)C(=O)O [Acetyl-L-glutamine] (20 µM) for me?
RESULT: inactive
